Listing of recorded MIC by entry.
test system: Staphylococcus aureus; experiment: Antibacterial activity against methicillin-resistant Staphylococcus aureus NR10191 by CLSI method; assay type: functional
readout: MIC

>>> reported_result("N#Cc1ccc(/C=C/c2nc3ccccc3c(=O)n2-c2cccc(OCc3cn(-c4cccc(Cl)c4)nn3)c2)cc1")
"1 µg/mL"
>>> reported_result("N#Cc1ccc(/C=C/c2nc3ccccc3c(=O)n2-c2cccc(OCc3cn(Cc4ccccc4)nn3)c2)cc1")
"1 µg/mL"
>>> reported_result("C[C@@H](O)[C@H]1C(=O)N2C(C(=O)O)=C(S[C@@H]3CN[C@H](C(=O)N(C)C)C3)[C@H](C)[C@H]12")
"> 64 µg/mL"
>>> reported_result("C[C@H]1COc2c(N3CCN(C)CC3)c(F)cc3c(=O)c(C(=O)O)cn1c23.C[C@H]1COc2c(N3CCN(C)CC3)c(F)cc3c(=O)c(C(=O)O)cn1c23.O")
"32 µg/mL"

----------
experiment: Selectivity index, ratio of CC50 for African green monkey Vero cells to MIC for Staphylococcus aureus ATCC 29213; format: toxicity; settings: read-out: Selectivity Index
readout: selectivity ratio

>>> reported_result("Cc1cccc(-n2cc(COc3cccc(-n4c(/C=C/c5ccc(C#N)cc5)nc5ccccc5c4=O)c3)nn2)c1")
40
>>> reported_result("N#Cc1ccc(/C=C/c2nc3ccccc3c(=O)n2-c2cccc(OCc3cn(-c4ccc(Cl)cc4)nn3)c2)cc1")
40
>>> reported_result("N#Cc1ccc(/C=C/c2nc3ccccc3c(=O)n2-c2cccc(OCc3cn(-c4cccc(Cl)c4)nn3)c2)cc1")
80
>>> reported_result("N#Cc1ccc(/C=C/c2nc3ccccc3c(=O)n2-c2cccc(OCc3cn(Cc4ccccc4)nn3)c2)cc1")
40

----------
test: Cytotoxicity against African green monkey Vero cells after 72 hrs by MTT assay; type: cell-based; conditions: chlorocebus sabaeus
Listing of recorded CC50 at 72 h by entry.
readout: CC50 at 72 h (µg/mL)

>>> reported_result("N#Cc1ccc(/C=C/c2nc3ccccc3c(=O)n2-c2cccc(OCc3cn(Cc4ccccc4)nn3)c2)cc1")
20
>>> reported_result("N#Cc1ccc(/C=C/c2nc3ccccc3c(=O)n2-c2cccc(OCc3cn(-c4cccc(Cl)c4)nn3)c2)cc1")
40
>>> reported_result("Cc1cccc(-n2cc(COc3cccc(-n4c(/C=C/c5ccc(C#N)cc5)nc5ccccc5c4=O)c3)nn2)c1")
20
>>> reported_result("N#Cc1ccc(/C=C/c2nc3ccccc3c(=O)n2-c2cccc(OCc3cn(-c4ccc(Cl)cc4)nn3)c2)cc1")
20

----------
test system: Staphylococcus aureus; experiment: Antibacterial activity against Staphylococcus aureus ATCC 29213 after 16 to 18 hrs by CLSI method; format: functional
readout: MIC (mg/L)

>>> reported_result("C[C@H]1COc2c(N3CCN(C)CC3)c(F)cc3c(=O)c(C(=O)O)cn1c23.C[C@H]1COc2c(N3CCN(C)CC3)c(F)cc3c(=O)c(C(=O)O)cn1c23.O")
0.125
>>> reported_result("N#Cc1ccc(/C=C/c2nc3ccccc3c(=O)n2-c2cccc(OCc3cn(-c4ccc(C(F)(F)F)cc4)nn3)c2)cc1")
4
>>> reported_result("N#Cc1ccc(/C=C/c2nc3ccccc3c(=O)n2-c2cccc(OCc3cn(Cc4ccc([N+](=O)[O-])cc4)nn3)c2)cc1")
2
>>> reported_result("N#Cc1ccc(/C=C/c2nc3ccccc3c(=O)n2-c2cccc(OCc3cn(Cc4ccc(Br)cc4)nn3)c2)cc1")
16
>>> reported_result("N#Cc1ccc(/C=C/c2nc3ccccc3c(=O)n2-c2cccc(OCc3cn(-c4cccc(F)c4)nn3)c2)cc1")
0.5
>>> reported_result("Cc1cccc(-n2cc(COc3cccc(-n4c(/C=C/c5ccc(C#N)cc5)nc5ccccc5c4=O)c3)nn2)c1")
0.5
>>> reported_result("N#Cc1ccc(/C=C/c2nc3ccccc3c(=O)n2-c2cccc(OCc3cn(Cc4ccccc4)nn3)c2)cc1")
0.5
>>> reported_result("COc1ccc(-n2cc(COc3cccc(-n4c(/C=C/c5ccc(C#N)cc5)nc5ccccc5c4=O)c3)nn2)cc1")
4
